The reported measurements were obtained from patent US12655116B2.

System: VERPE
Measurement Protocol: Pre-emergence herbicidal action against VERPE
Type: in vivo, Veronica persica
Condition Info: dosage 80 g/ha
Recorded measurements of Pre-emergence action against VERPE in %, one per entry
Please give a number only; it is taken to be in %.

## Input Please look at `Cn1nnnc1NC(=O)c1ccc(C(F)(F)F)c(C(=O)NCc2cccs2)c1Cl` and tell me its recorded Pre-emergence action against VERPE in % on VERPE.
## Output 80

## Input Please look at `CCc1c(C(=O)Nc2nnnn2CC)ccc(C(F)(F)F)c1C(=O)NCC(F)F` and tell me its recorded Pre-emergence action against VERPE in % on VERPE.
## Output 80

## Input Please look at CCn1nnnc1NC(=O)c1ccc(C(F)(F)F)c(C(=O)NC(C)C2CC2)c1C1CC1 (stereo not drawn) and tell me its recorded Pre-emergence action against VERPE in % on VERPE.
## Output 100

* * *

Recorded measurements of Post-emergence action against MATIN in %, one per entry
Test system: MATIN
Measurement Protocol: Post-emergence herbicidal action against MATIN
Type: in vivo, Matricaria inodora
Condition Info: dosage 20 g/ha
Please give the number followed by its unit.

Molecule	Post-emergence action against MATIN in %
CCn1nnnc1NC(=O)c1ccc(C(F)(F)F)c(C(=O)NC(C)C2CC2)c1C (stereo not shown)	80%
CC(NC(=O)c1c(Br)ccc(C(=O)Nc2nnnn2C)c1Cl)C1CC1 (stereo not shown)	90%
CCn1nnnc1NC(=O)c1ccc(C(F)F)c(C(=O)NC(C)C2CC2)c1C (stereo not shown)	80%

## Input Recall and state the measured Post-emergence action against MATIN in % for `CSc1c(C(=O)Nc2nnnn2C)ccc(C(F)F)c1C(=O)NCC(F)F` .
## Output 80%

## Input Recall and state the measured Post-emergence action against MATIN in % for CSc1c(C(=O)Nc2nnnn2C)ccc(C(F)F)c1C(=O)NC(C)C1CC1 (stereo not shown) .
## Output 90%

## Input Recall and state the measured Post-emergence action against MATIN in % for `CCc1c(C(=O)Nc2nnnn2CC)ccc(C(F)(F)F)c1C(=O)NC` .
## Output 100%

* * *

Test system: ALOMY
Measurement Protocol: Pre-emergence herbicidal action against ALOMY
Format: in vivo, Alopecurus myosuroides
Condition Info: 80 g/ha, pre-emergence, scored visually after 3 weeks vs untreated controls (100% = plants have died, 0% = like control plants)
Test Readout: Pre-emergence action against ALOMY (herbicidal activity) (%)
Please give a number only; it is taken to be in %.

Compound	Numeric Value
CCn1nnnc1NC(=O)c1ccc(C(F)(F)F)c(C(=O)NC)c1OC [Example 2-56]	90
CSc1c(C(=O)Nc2nnnn2C)ccc(C(F)(F)F)c1C(=O)NCC(F)F [Example 1-86]	100
CCn1nnnc1NC(=O)c1ccc(C(F)F)c(C(=O)NCC2CC2)c1Br [Example 2-228]	80
CCc1c(C(=O)Nc2nnnn2CC)ccc(C(F)(F)F)c1C(=O)NC(C)C1CC1 (centres unmarked) [Example 2-341]	90
CCc1c(C(=O)Nc2nnc(C)o2)ccc(C(F)(F)F)c1C(=O)NC1CC1 [Example 6-212]	80
CCNC(=O)c1c(C(F)(F)F)ccc(C(=O)Nc2nnc(C)o2)c1CC [Example 6-211]	90

## Input Recall and state the measured Pre-emergence action against ALOMY (herbicidal activity) for CCNC(=O)c1c(C(F)(F)F)ccc(C(=O)Nc2nnc(C)o2)c1C [Example 6-26] .
## Output 80

## Input Recall and state the measured Pre-emergence action against ALOMY (herbicidal activity) for CCNC(=O)c1c(C(F)F)ccc(C(=O)Nc2nnco2)c1Cl [Example 5-123] .
## Output 80
